Test system: MS2 coat protein
Assay: apparent KD of MS2 coat protein; designed switch direction (-1 OFF switch, 1 ON switch): -1; higher = weaker reporter binding
Details: Eterna round: R95; input ligand: none
measurement-kind: apparent KD of MS2 coat protein (nM)

1. CCAGGCGUCUUGGCUCGUCUUAUUUGGAGAGGAUUGAUAACAUGAGGAUCACCCAUGUGUGUGGGAGCGUUGCAGUG [JR_SV3TOV2_Sub019] (puzzle: Sensor v3, turn-off variant 2) : 102
2. GUAGAGACAGGAUAUACAUGAGGAUCACCCAUGUGAGGAGGAAAAGAGAGGAGAAAGAGUAGAAGGGUCGAAAG [JR_Exclu3_Sub030] (puzzle: Exclusion 3) : 43
3. AAUAAAGGAGGAUAUACUAAAAUAUGAAUAAAAUAAAUAAAACAUGAGGAUCACCCAUGUAGAAGGCCUAAUAA [JMF's Not so obvious solution 3] (puzzle: Exclusion 2) : 25.2
4. GAGGUACAUGAGGAUCACCCAUGUGAGGAUAUAGGUAGAGAUUGAGAGAGGUGGAGGACUAGAAGGCACAGUGG [JR_Exclu1_Sub040] (puzzle: Exclusion 1) : 60.3
5. GAGAAGGUAGGAUAUACGAAGAAAGAGGGUAGGAAGAAUACACAUGAGGAUCACCCAUGUAGAAGGACCAAGAG [Mat - Exclusion 2 - Mod of my Tesla design - D47] (puzzle: Exclusion 2) : 23

###

Tested on: MS2 coat protein
Assay: apparent KD of MS2 coat protein; designed switch direction (-1 OFF switch, 1 ON switch): 1; higher = weaker reporter binding
Details: input ligand: microRNA oligo, concentration not stated
Recorded apparent KD of MS2 coat protein values for a group of sequences are listed next.
measurement-kind: apparent KD of MS2 coat protein

1. AGUCCAGCCUGAGCUGGACAAAUGCAAGUACAUGAGGAUCACCCAUGUUCAUGUACAAGCUUUUUGCUCGUCUUAAA [JL zipper 59] (Eterna round: R96, puzzle: Sensor for hsa-mir-208a) : 21.3 nM
2. AUUGCUUACGCAGGAUAUGAUGCGAAAAUUGCGUCAGAAGGGUGAAGUGACUCGUAGCAACAAGACAUGAGGAUCACCCAUGUC [SameState NG1 #93] (Eterna round: R96, puzzle: Same State NG 1) : 26.4 nM
3. UUAAUAAUGUUAGGAUAUACAUGAGGAAUCCUCGUAGAAGGAACAUGACAUGAGGAUCACCCAUGUAGCGCUCCGUAGAGCGCA [Mat - Same State NG 1 - JL mod - D45] (Eterna round: R96, puzzle: Same State NG 1) : 53.2 nM

###

Test system: MS2 coat protein
Test: apparent KD of MS2 coat protein; designed switch direction (-1 OFF switch, 1 ON switch): -1; higher = weaker reporter binding
Settings: input ligand: FMN 200 uM
Recorded apparent KD of MS2 coat protein values for a group of sequences are listed next.
measurement-kind: apparent KD of MS2 coat protein (nM)

1) ACUGGAGCAGGAUAUACAUAACGUGCUUCGGCACGAGAUCUACAUGAGGAUCACCCAUGUAGAAGGGCUCCAGU [E2/10-D1] (Eterna round: R97, puzzle: Exclusion 2) : 28.3
2) UUCCUCAUAACAUGAGGAUCACCCAUGUAUUAUUUGGUAACUGAGGAUAUACUUUUAAUGUUUAUGUAGAAGGCAGAUACAGUU [JR_ExcNG3_Sub017] (Eterna round: R96, puzzle: Exclusion NG 3) : 165
3) UUAUAGGCAGGAUAUACAUGAGGAUCACCCAUGUAAAUUUUUCGUUUAACUUGAAUGUGUAGAAGGGCCAUAUU [Ex3 #57] (Eterna round: R97, puzzle: Exclusion 3) : 22.3
4) UUUACAAGCUAUUGAUCCCACAUGAGGAUCACCCAUGUUCCUGGCCGUGAGGCUAGGUAAACAAUUGCUCGUCUUAU [JL TOV1 3.69] (Eterna round: R97, puzzle: Sensor, turn-off variant 1) : 903
5) CGUUGUAUAGGAUAUACAUGAGGAUCACCCAUGUGAAAUUAUAGUGAGGAAAUGAAAAGUAGAAGGGUAUGACA [Mod of Mat 7 - Jieux - Exclusion 3] (Eterna round: R97, puzzle: Exclusion 3) : 35.5
6) UACAUGAGGAUCACCCAUGUUUUGUCGUGUAUGGUAUUUAUCUAGGAUAUCAUUUGAUUUAUUUAUGAGAAGGAGAAUAUUAAU [JMF's solution 100] (Eterna round: R96, puzzle: Exclusion NG 3) : 34.3
7) AUCGUGUGAGGAUAUCGAUCAUGGAGGUCUAGGUCUAUGCGCGAGAAGGCACAUGAGGAUCACCCAUGUAAUGG [jl-ex4-4.29 ViennaUCT mod] (Eterna round: R97, puzzle: Exclusion 4) : 59.9
8) ACAUGAGGAUCACCCAUGUCCGGCUGGUCCGUCUCGGCUGUCGAGGAUAUAGCACGGUAUCCGCGCUAGAAGGCGGGAGCCGGA [Aenatbe mod 85] (Eterna round: R96, puzzle: Exclusion NG 3) : 72.4
9) UAUUACCUAGGAUAUACAUGAGGAUCACCCAUGUCACGGGUCAACUUGUCCUAUGCGUGUAGAAGGAGGGACCC [JL Ceriza mod 6] (Eterna round: R96, puzzle: Exclusion 3) : 25
10) AUCAGCUCGUCAGGAUAUACAUGCGUGCUUCGGCACGAAUUUAAGAUCACAUGAGGAUCACCCAUGUAGAAGGGACGAGCUGAU [ENG2/3-B3] (Eterna round: R96, puzzle: Exclusion NG 2) : 1270
11) CUAAAUCAUGUAGGAUAUGCGUGGCAAAGCUAUGCAGAAGGACAUGAGGAUCACCCAUGUCAUUCCGUCUGGGAACAGACGGGA [Mat - Exclusion NG 1 - Mod of JL - D52] (Eterna round: R96, puzzle: Exclusion NG 1) : 158
12) CUCCGGCGUGUAGGAUAUGGAUCCGAUUAGGAUCCAGAAGGACAUGAGGAUCACCCAUGUACAUGUAGACGGUCGUCACCGGGC [salish99_ExNG1_r04_208] (Eterna round: R96, puzzle: Exclusion NG 1) : 195
13) GGAUCGAGUGUGAGGAUAUACCUAUGGAAACAUAGGUAGAAGGCACAUGAGGAUCACCCAUGUUCCUACGGUCC [Mat - Exclusion 4 - Eli Mod - D8] (Eterna round: R97, puzzle: Brourd's mod of Exclusion 4) : 658
14) GUGCUAUGAGGAUAUACGUUGGUGGGCAUCUGUGUGCUCCUACAUGAGGAUCACCCAUGUAGAAGGCAUGUCAC [LRO-Excl2-20] (Eterna round: R96, puzzle: Exclusion 2) : 22.9
15) AGCCCUGCAGGAUAUGCCCGGGAUAACAUGAGGAUCACCCAUGUGACCGAUUGUUAUUCUGCAGAAGGGCAUGGGA [JL-EX5-4.17 ViennaUCT mod] (Eterna round: R97, puzzle: Exclusion 5) : 228
16) GGUCGUCAAGUCAGGAUAUCGUAUAGUCGAUGUAACGAGAAGGGACAUGAGGAUCACCCAUGUCGUCUCAUCAG [Ex4 #25] (Eterna round: R97, puzzle: Brourd's mod of Exclusion 4) : 18.2
17) CAGCCAAGUGUGAGGAUAUGGCGAUUGCAUUGACGUCAGAAGGCACAUGAGGAUCACCCAUGUGAGGUGGAUGA [Eternabot (L2) Solution 25] (Eterna round: R97, puzzle: Brourd's mod of Exclusion 4) : 45.8
18) AGCCCUGCAGGAUAUGCCCGGGAUAACAUGAGGAUCACCCAUGUGACCGGUUGUUAGACUGCAGAAGGGCAUGGGA [salish99_ex5_r4_302] (Eterna round: R97, puzzle: Exclusion 5) : 14.8

###

System: MS2 coat protein
Assay: apparent KD of MS2 coat protein; higher = weaker reporter binding
Conditions: Eterna round: R107; input ligand: tryptophan 2.4 mM
Parameter threshold = 50 nM. Response is t when apparent KD of MS2 coat protein meets or exceeds it, else f.

1. ACAUGAGGAUCACCCAUGUAAUUGCCGGAAGGAGCGUCAUUAAGGACAGGUAGGUCGCUGGUAGGGUCGUCGGUUACGGCGGCCA [SSArg A #10] : f
2. CUGCCAUGCAGAGAUACCAGUGAGCUCAAAACAUGAGGAUCACCCAUGUAAAUUGCCGAUCACCCUUGGCAGCUCUGCAUGGCAG [}=%#^] : f
3. AUAACAUGAGGAUCACCCAUGUAAGCAGAUACCAGCUAGGAAACUAGCCCUUGGCAGCUGCAAUCCUCAUGUAUUGCAGCUGCAA [(M1)-(M2)-(T1)-(T2)-(M)'-(T)'_Design1] : f
4. GACAUGAGGAUCACCCAUGUACCGCGAGAAGGAGCGCGGAUAAACGCAGGUAGGUCGCUCGUGGGCUUGUAUUCAAUCGUAAGCU [Anlaaranan] : t
5. GCUGCCAUACGAAGGAGCGCUGGUGUAAUGAGGCGAACAUGAGGAUCACCCAUGUGGCAGAAGCAGGUAGGUCGCGUAUGGCAGC [EAB #15] : f
6. UGUAUGGACUGAAGGAGCGGAAAAUAACCAUGAGGAUCACCCAUGGAAUAGGCGAAAGCCAUCCAGGUAGGUCGCAGUCCAUACU : f
7. CUCGAGUUAUGAGAUACCAGACUAUAGUUUACAUGAGGAUCACCCAUGUUAUGGGUGGUAGUCCCUUGGCAGCUCAUAUGUUUAA [#06 Exclusion-TheophyllineB] : t
8. GGCACAUAGUCGGCCGCCACUAGAAUAUAGUGGAAUAACAUGAGGAUCACCCAUGUAUUUGGGACUAGGACCGGGACUAUGUGCC [Bear] : f
9. AUACAUGAGGAUCACCCAUGUUAUAGUGAAGGAGCGACAUUUAGGUCAGGUAGGUCGCACUAUUGAAUUAUUAUUCUCAGUUCUU [JR_ExcArginiA_Sub019] : f
10. AGGUAUGAUCCGGAUACCAGCGAACAUGAGGAUCACCCAUGUGACCUGAGAUAGGCUCUACGCCCUUGGCAGCCGCGAUCGCAGA [Same State Theophylline B GF11] : f
11. AGACGAGAAGAGGUUUACCCAUGUACAGAAGGAGCGUCGUUGACGACAGGUAGGUCGCUGGAAACAUGAGGAUCACCCAUGUUGA [#06 Exclusion - Arginine A] : f
